assay-name: Electro-potential of amino acid in deionized water against a hydrogen electrode
Type: physicochemical
test-conditions: amino acid in 100 ml deionized water, electro-potential meter against hydrogen electrode
parameter-measured: electro-potential (mV)

- compound: "CC(CNC(=N)N)C[C@H](N)C(=O)O (some centres unmarked)"
  parameter-measured: "electro-potential"
  data-value: 197
- compound: "C[C@H](N)C(=O)O"
  parameter-measured: "electro-potential"
  data-value: 177
